Origin of values: ChEMBL document CHEMBL4513216

Recorded measurements of INHIBITION, one per entry
system: Plasmodium berghei; assay: Screen against P. berghei liver stage (PbLuc), transformed with Luciferase, at 2uM; assay type: functional, HepG2; details: tested at 2 uM
Hit rate of the full screen: of about 68,000 compounds, about 2,700 (4%) showed an effect of 50% or more. Many of the other results were omitted from the sample, so strong results are more common in it than they were.
Only the number, expressed in %, is required.

molecule=O=C(O)CCC(=O)N1CCN(CC2CC2)c2ncccc2C1 numeric_readout=18.6
molecule="N#CCc1cccc(C(=O)N2CCN(CC(O)c3ccccc3)CC2)c1 (stereo unspecified)" numeric_readout=29.42
molecule="COc1cccc(C(O)CN2CCN(C(=O)c3ccsc3)CC2)c1 (stereo unspecified)" numeric_readout=38.49
molecule=COc1cccc(N2CCN(CC[C@H](O)c3ccccc3)CC2=O)c1 numeric_readout=61.75
molecule="COc1cccc(C(=O)N2CCN(CC(O)c3ccccc3)CC2)c1 (stereo unspecified)" numeric_readout=55.25

Then this molecule:
Q: Field: INHIBITION (Plasmodium berghei). Entry: Cc1cc(=O)c2cc(F)ccc2n1CC(=O)O
A: -30.92
